Tested on: OVCAR-4 ovarian
testMethodNotes: NCI-60 one-dose screen, 48 h (100 = growth as untreated, 0 = no growth, -100 = all killed)
assaySetup: 10 µM
This is part of a sample that, as a whole, favours compounds with a hit. Of some 83,000 tested, about 20% had one in any assay.
assayEndpoint: growth (%)
One number for each entry, in %.

INSERT INTO assay_data (molecule, testsystem, testresult) VALUES
  ('CN(C)c1ccc(/C=C/c2nc3ccccc3c(=O)n2CC(=O)Nc2ccccc2)cc1', 'OVCAR-4 ovarian', 35.5),
  ('Cc1ccc2nc3c(nc2c1)c1cc(I)ccc1n3CCN(C)C', 'OVCAR-4 ovarian', 27.2),
  ('O=C(Nc1ccccc1)Nc1nc2ccccc2s1', 'OVCAR-4 ovarian', 78.2),
  ('CN1C(=O)N(C)C2SC(N/N=C/c3cccs3)=NC21 (stereo not given)', 'OVCAR-4 ovarian', 57.9);

Can you look up the measured growth of CC(C)NC(=O)c1cc(-c2ccc(NC(=O)Nc3ccc(N4CCN(C)CC4)c(C(F)(F)F)c3)cc2)nc2cccnc12 for me?
-87.8

###

System: NCI-H23 lung
testMethodNotes: NCI-60 one-dose screen, 48 h (100 = growth as untreated, 0 = no growth, -100 = all killed)
assaySetup: 10 µM
The panel holds about 83,000 compounds, 20% with a hit somewhere; the sample as a whole holds those more often.
Classify: YES when growth is strictly less than 10%; NO when growth is not.

INSERT INTO assay_data (compound, category) VALUES
  ('CN1CCN(Cc2ccc(C(=O)Nc3cccc(Nc4ccc5c(O)cccc5n4)c3)cc2C(F)(F)F)CC1', 'YES');

In plain terms, does Cc1cc(C)nc(NS(=O)(=O)c2ccc(N/C(N)=N/c3nccc(-c4cccs4)n3)cc2)n1 come in under 10% for growth?
NO

In plain terms, does COc1ccsc1/C=N/NC(=O)c1[nH]c2ccc(Br)cc2c1-c1ccccc1 come in under 10% for growth?
YES

In plain terms, does O=C(Cn1cc(CSc2nnc3oc4ccccc4n23)nn1)Nc1ccc(Br)cc1 come in under 10% for growth?
NO

In plain terms, does O=C(Nc1ccc(Cl)c(C(F)(F)F)c1)c1cncc(C#Cc2cnc3ccc(N4CCOCC4)nn23)c1 come in under 10% for growth?
YES

In plain terms, does CCNCCCn1c2c(c3cc(OC)c(OC)cc3c1=O)C(=O)c1cc3c(nc1-2)OCO3 come in under 10% for growth?
YES

In plain terms, does COc1cc(/C=C/C(=O)c2ccc(NC(=O)CN3C(=O)NC(C)(c4ccccc4)C3=O)cc2)cc(OC)c1OC (configuration not stated) come in under 10% for growth?
NO

In plain terms, does O=C(Nc1cc(Cl)cc(Cl)c1)Nc1cc(Cl)cc(Cl)c1 come in under 10% for growth?
YES

In plain terms, does CCOC(=O)C1=C(N)N(c2ccccc2)C2=C(C(=O)CC(C)(C)C2)C1c1ccc(Cl)cc1 (configuration not stated) come in under 10% for growth?
NO

In plain terms, does COc1ccc(N(C)c2cc(C#N)nc3ccccc23)cc1/C=C/C(=O)NO come in under 10% for growth?
YES

In plain terms, does COc1cccc(/C=N/NC(=O)c2ccc3nc(-c4ccc(Cl)cc4)[nH]c3c2)c1O come in under 10% for growth?
YES

In plain terms, does N#Cc1c(NC(=O)c2ccc(C(O)(C(F)(F)F)C(F)(F)F)cc2)sc2c1CCC(=O)C2 come in under 10% for growth?
YES

###

Consider the following compounds; for each one, report its growth.
System: NCI-H460 lung
testMethodNotes: NCI-60 one-dose screen, 48 h (100 = growth as untreated, 0 = no growth, -100 = all killed)
assaySetup: 10 µM
This is part of a sample that, as a whole, favours compounds with a hit. Of some 83,000 tested, about 20% had one in any assay.
Numbers only, in %.

Illustrative cases are given below, each with its answer.
INSERT INTO measurements (smilesstructure, testresult) VALUES
  ('O=c1[nH]c2ccccc2cc1CSc1ccc(Nc2nccc(-c3ccc4c(c3)OCO4)n2)cc1', 83.1),
  ('CN1C(=O)/C(=C/c2ccc3ncsc3c2)NC1=NC12CC3CC(CC(O)(C3)C1)C2', 9.92),
  ('COc1cc(/C=N/NC(=O)c2ccc3nc(-c4ccc(Cl)cc4)[nH]c3c2)cc(OC)c1OC', -34.8),
  ('O=C(NCCCCCCCCCC[P+](c1ccccc1)(c1ccccc1)c1ccccc1)c1ccc(-n2nc(-c3ccccc3O)nc2-c2ccccc2O)cc1', 8.35),
  ('CCOC(=O)CNC(=O)CN(Cc1ccccc1)C(=O)[C@@]1(C)CCC[C@]2(C)[C@H]3CC4C(C(C)C)=C[C@]3(CC[C@H]21)[C@@H]1C(=O)CCC(=O)[C@H]41', 65),
  ('Cc1ccc2nc(COc3ccc(C(=O)NNC(=S)NC(=O)c4ccccc4)cc3)[nH]c2c1', 20.5),
  ('COc1ccc(NC(=O)Cn2c(/C=C/c3ccc(N(C)C)cc3)nc3ccccc3c2=O)cc1', 19.5);

Can you look up the measured growth of O=C1N/C(=N\c2nccs2)S/C1=C\c1cccs1 for me?
14.7

###

System: UACC-257 melanoma
testMethodNotes: NCI-60 one-dose screen, 48 h (100 = growth as untreated, 0 = no growth, -100 = all killed)
assaySetup: 10 µM
About 83,000 compounds went through this panel and 20% of them were active in at least one assay; those are over-represented in the sample as a whole.
assayEndpoint: growth (%)
Answers are plain numbers, in %.

INSERT INTO results (molecule, testresult) VALUES
  ('CC1(c2ccccc2)NC(=O)N(CC(=O)Nc2ccc(C(=O)/C=C/C=C/c3ccccc3)cc2)C1=O (centres undefined)', 63.6);

Please state, for each entry, its recorded growth.
1. COc1ccccc1NCc1ccc(CO)n1-c1ccc(C)cc1
2. O=C(N/N=C/c1ccc(-c2cccc([N+](=O)[O-])c2)o1)c1[nH]c2ccc(Br)cc2c1-c1ccccc1
3. N#C/C(=C\c1ccc(N(c2ccccc2)c2ccccc2)cc1)C(N)=O

[109, 41.9, -55.9]

###

System: DU-145 prostate
testMethodNotes: NCI-60 one-dose screen, 48 h
assaySetup: 10 µM
Compounds without any hit were thinned out: in the full panel of roughly 83,000, 20% have a hit. The source made the active and inactive calls. The calls were made as follows: active = growth percent below 10; inactive = the rest.
The reply should be one of these categories: label 1 (active), label 0 (inactive)

As a guide, the following entries are already answered.
INSERT INTO results (smilesstructure, category) VALUES
  ('C=C(C)[C@@H]1CC[C@]2(C(=O)OC)CC[C@]3(C)[C@H](CC[C@@H]4[C@@]5(C)CC[C@H](N)C(C)(C)[C@@H]5CC[C@]43C)[C@@H]12', 'label 1'),
  ('O=C(CSc1nnc(-c2c[nH]c3ccccc23)n1-c1ccccc1)c1ccc(Cl)cc1', 'label 0'),
  ('O=C(c1ccccc1)n1ccc(-c2cc3cc(Br)ccc3oc2=O)n1', 'label 0'),
  ('O=C(O)CCCCCCCCCCN1C(=O)/C(=C/c2cnc(-c3ccccc3)s2)SC1=S', 'label 0'),
  ('CCOC(=O)c1c(CSc2ccccc2)n(C)c2cc(CN(C)C)c(O)c(CN(C)C)c12', 'label 0');

Answer briefly: the call reported for Brc1ccc(/C=N/Nc2ncnc3sc4c(c23)CCN(Cc2ccccc2)C4)cc1 in this assay.
label 0

Answer briefly: the call reported for COC[C@@H](CC(C)C)N=C1NC(=O)/C(=C/c2ccc3ncoc3c2)N1 in this assay.
label 0

Answer briefly: the call reported for COc1ccc2[nH]c(O)c(N=NC(=O)COc3ccc(NC(=O)Nc4ccc(Cl)c(Cl)c4)cc3)c2c1 in this assay.
label 1

Answer briefly: the call reported for O=S(=O)(c1ccc(Cl)cc1)c1nc(-c2ccccc2)oc1S(=O)(=O)c1ccc(Cl)cc1 in this assay.
label 0

###

Consider the following molecules; for each one, report its growth.
Tested on: SNB-19 CNS
testMethodNotes: NCI-60 one-dose screen, 48 h (100 = growth as untreated, 0 = no growth, -100 = all killed)
assaySetup: 10 µM
This is part of a sample that, as a whole, favours compounds with a hit. Of some 83,000 tested, about 20% had one in any assay.
One number for each entry, in %.

INSERT INTO assay_data (smilesstructure, testsystem, endpointunit, testresult) VALUES
  ('COc1ccc(N(C)c2cc(C#N)nc3ccccc23)cc1/C=C/C(=O)NO', 'SNB-19 CNS', '%', -44.5),
  ('C=C(C)[C@@H]1CC[C@]2(C)[C@H](CC=C3[C@@H]4CC(C)(C)CC[C@]4(C(=O)N4CCOCC4)CC[C@]32C)[C@@]1(C)CCCN', 'SNB-19 CNS', '%', -93.7),
  ('Cc1cccc(NC(=O)CSc2nc3ccc(F)cc3c(=O)n2-c2ccc(Cl)cc2)c1C', 'SNB-19 CNS', '%', 7.05),
  ('COc1ccc2c(c1)N=C(C(=O)O)/C2=C/c1sc(Nc2ccc(O)cc2)nc1O', 'SNB-19 CNS', '%', 70.1),
  ('C=CC(=O)Nc1ccc(C(=O)/C=C/c2ccc(N(C)CCF)cc2)c(O)c1', 'SNB-19 CNS', '%', -15.6),
  ('O=C(Nc1ccc(OCC(=O)c2ccccc2)cc1)Nc1ccc(Cl)c(C(F)(F)F)c1', 'SNB-19 CNS', '%', 15.7),
  ('O=C(CSc1nnc(-c2ccc3nc(-c4ccc(Cl)cc4)[nH]c3c2)o1)Nc1ccc(Cl)cc1', 'SNB-19 CNS', '%', -49.4),
  ('CC(C)NC(=O)c1cc(-c2ccc(NC(=O)Nc3ccc(N4CCN(C)CC4)c(C(F)(F)F)c3)cc2)nc2cccnc12', 'SNB-19 CNS', '%', -93.2);

Can you look up the measured growth of CC1(C)CC[C@]23CC[C@]4(C)[C@H](CC[C@@H]5[C@@]6(C)CC[C@H](N)C(C)(C)[C@@H]6CC[C@]54C)[C@H]2[C@H]1OC3=O for me?
-98.7
